Reference for the values: ChEMBL document CHEMBL1125654

# assayProtocol: Partition coefficient (logD7.4)
# statedConditions: octanol/water, pH 7.4
logD strictly less than 4 = 1 (yes). Otherwise 0 (no).

compound	class
CCC(C)CNC(=O)C[C@H](O)C(CC(C)C)NC(=O)C(CC#CCNC(C)=O)NC(=O)C(Cc1cccc2ccccc12)Cc1cccc2ccccc12 (stereo in doubt; 55b)	0 (no)
CCC(C)CNC(=O)C[C@H](O)C(CC(C)C)NC(=O)C(CCCCC/N=C(\N)N[N+](=O)[O-])NC(=O)C(Cc1cccc2ccccc12)Cc1cccc2ccccc12 (stereo partly drawn)	0 (no)
CCC(C)CNC(=O)C[C@H](O)C(CC(C)C)NC(=O)C(CCCCNP(=O)(Oc1ccccc1)Oc1ccccc1)NC(=O)C(Cc1cccc2ccccc12)Cc1cccc2ccccc12 (stereo partly drawn)	0 (no)
N=C(NCC#CCC(NC(=O)C(Cc1cccc2ccccc12)Cc1cccc2ccccc12)C(=O)NC(CC1CCCCC1)[C@@H](O)CC(=O)N1CCOC(CCN)C1)N[N+](=O)[O-] (stereo partly drawn)	0 (no)
CC(C)CC(NC(=O)C(CCCC/N=C(/N)N[N+](=O)[O-])NC(=O)C(CC(=O)N1CCOCC1)Cc1cccc2ccccc12)[C@@H](O)CC(=O)N1CCOC(CCN)C1 (stereo partly drawn)	1 (yes)
CC(C)CC(NC(=O)C[C@H](O)C(CC(C)C)NC(=O)C(CCCCNC(=N)N[N+](=O)[O-])NC(=O)C(Cc1cccc2ccccc12)Cc1cccc2ccccc12)C(=O)NCc1ccccc1 (stereo partly drawn)	0 (no)

----------
# assayProtocol: Partition coefficient (logD7.4)
# statedConditions: octanol/water, pH 7.4, logD
Reported logD values are given for each entry in this list.
metric: logD

compound	reportedValue
CCC(C)CNC(=O)C[C@H](O)C(CC(C)C)NC(=O)C(C/C=C\CNC(C)=O)NC(=O)C(Cc1cccc2ccccc12)Cc1cccc2ccccc12 (stereo partly drawn)	5.56
CCC(C)CNC(=O)C[C@H](O)C(CC(C)C)NC(=O)C(CC#CCNC(C)=O)NC(=O)C(Cc1cccc2ccccc12)Cc1cccc2ccccc12 (stereo in doubt; 55a)	5.32
CCC(C)CNC(=O)C[C@H](O)C(CC(C)C)NC(=O)C(CCCCNC(=S)Nc1ccccc1)NC(=O)C(Cc1cccc2ccccc12)Cc1cccc2ccccc12 (stereo partly drawn)	6.6
CS/C(=N\CCCCC(NC(=O)C(CC(=O)N1CCOCC1)Cc1cccc2ccccc12)C(=O)NC(CC(C)C)[C@@H](O)CC(=O)N1CCOC(CCN)C1)NC#N (stereo partly drawn)	1.68
NCCC1CN(C(=O)C[C@H](O)C(CC2CCCCC2)NC(=O)C(Cc2c[nH]cn2)NC(=O)C(Cc2ccccc2)NS(=O)(=O)N2CCOCC2)CCO1 (stereo partly drawn)	2.25
CCC(C)CNC(=O)C[C@H](O)C(CC(C)C)NC(=O)C(CCCCNC(=O)NC)NC(=O)C(Cc1cccc2ccccc12)Cc1cccc2ccccc12 (stereo partly drawn)	5.63
CCC(C)CNC(=O)C[C@H](O)C(CC(C)C)NC(=O)C(CCCCCCN=C(S)NC)NC(=O)C(Cc1cccc2ccccc12)Cc1cccc2ccccc12 (stereo partly drawn)	5.64
CC(C)CC(NC(=O)C(CCCCNC(=O)OCc1ccccc1)NC(=O)C(Cc1ccccc1)NS(=O)(=O)N1CCOCC1)C(=O)C(F)(F)C(=O)N1CCOC(CCN)C1 (stereo not drawn)	2.32
CCC(C)CNC(=O)C[C@H](O)C(CC(C)C)NC(=O)C(CC#CCNC(=O)OCc1ccccc1)NC(=O)C(Cc1cccc2ccccc12)Cc1cccc2ccccc12 (stereo partly drawn)	7.37
CNC(=S)NCC#CCC(NC(=O)C(Cc1cccc2ccccc12)Cc1cccc2ccccc12)C(=O)NC(CC1CCCCC1)[C@@H](O)CC(=O)N1CCOC(CCN)C1 (stereo partly drawn)	5.46
CCC(C)CNC(=O)C[C@H](O)C(CC(C)C)NC(=O)C(CCCCNC(=NC#N)SC)NC(=O)C(Cc1cccc2ccccc12)Cc1cccc2ccccc12 (stereo partly drawn)	5.51
CNC(=S)NCCCCC(NC(=O)C(Cc1cccc2ccccc12)Cc1cccc2ccccc12)C(=O)NC(CC(C)C)[C@@H](O)CC(=O)N(C)OC (stereo partly drawn)	4.83
CCC(C)CNC(=O)C[C@H](O)C(CC(C)C)NC(=O)C(CCCCn1cccc1)NC(=O)C(Cc1cccc2ccccc12)Cc1cccc2ccccc12 (stereo partly drawn)	7.21
